Listed below: growth inhibition values for each entry.
Assay: NCI Yeast Anticancer Drug Screen. Data for the rad18 strain (AID 177)
Details: S. cerevisiae rad18 mutant growth inhibition; at 3.7 µM; stronger effect = higher value
Procedure: Growth inhibition of yeast strains with defined genetic alterations is measured as a screen for potential anti-cancer activity. Selected strains with alterations in DNA damage repair or cell cycle control were exposed to compounds and growth inhibition was measured relative to vehicle treated controls. The strain used in this assay is rad18
This is part of a sample that, as a whole, favours compounds with a hit. Of some 79,000 tested, about 15% had one in any assay.
Numeric only. Scale: %

COMPOUND	growth inhibition [%]
CC(=O)Nc1ccc(/C=C/[N+](=O)[O-])cc1	6
O=C1/C(=C/c2ccccc2)CCCC1CN1CCCCC1 (centres undefined)	59
C=C(C(=C)n1nnc(C(=O)OC)c1C(=O)OC)n1nnc(C(=O)OC)c1C(=O)OC	0
CCCCCCCCCCCCNC(C)=O	-4
O=c1ccc2ccccc2c2ccccc12	-3
CCOC(=O)[C@H]1Nc2ccc(OC)cc2C2c3ccccc3CC21 (some centres undefined)	-9

*Q* Can you look up the measured growth inhibition of CC(C)(C)N=C(NO)c1ccccc1 for me?
*A* -1

*Q* Repeat for the following compound: CC(C)/C(Cl)=N\OC(=O)Nc1ccc(F)cc1F
*A* -1

*Q* Consider next the compound Cc1cccc(C(C)(C)C)c1NC(=O)C(C#N)C1=C(Cl)C(=O)c2ccccc2C1=O (centres undefined) in the same way.
*A* 34

*Q* Also CCOc1ccccc1N=Cc1c2ccccc2cc2ccccc12 , if possible.
*A* 21

----------
test: NCI Yeast Anticancer Drug Screen. Data for the rad18 strain (AID 177); settings: S. cerevisiae rad18 mutant growth inhibition; at 100.0 µM
This is part of a sample that, as a whole, favours compounds with a hit. Of some 79,000 tested, about 15% had one in any assay. Calls of active or inactive are those of the source. No stated cut-off is given here; in the data, active means growth inhibition above about 70%; inactive means the rest.
Your response should consist of one outcome taken from true (1) (active), false (0) (inactive)

Sample answers from the record:
COMPOUND	CLASSIFICATION
CN1CCN(C(=O)/C=C/C(=O)c2ccccc2)CC1	true (1)
CCOC(=O)C(Br)C(Br)c1ccccc1Cl (configuration not stated)	true (1)
COc1cc(C2c3cc4c(cc3OC(OC(C)=O)C2C)OCO4)cc(OC)c1OC (configuration not stated)	true (1)
O=C1OC(C2=CC(=O)c3ccccc3C2=O)C(Cl)=C1Cl (configuration not stated)	true (1)
CCOC(=O)[C@H]1Nc2ccc(OC)cc2C2c3ccccc3CC21 (some centres not stated)	true (1)
CCCCN(CCCC)C(=O)/C=C/c1ccccc1	false (0)
Nc1ccn(C2OC(COP(=O)(O)O)C(O)C2O)c(=O)n1 (configuration not stated)	false (0)
COc1cc(/C=C2\CCC/C(=C\c3ccc(O)c(OC)c3)C2=O)ccc1O	false (0)
O=[N+]([O-])c1cc[n+]([O-])cc1	true (1)
COc1ccc(C2C3=C(COC3=O)OC(C)(C)Oc3cc4c(cc32)OCO4)cc1OC (configuration not stated)	true (1)

*Q* Look up the recorded call for CCCCOCn1c(=O)[nH]c(=O)c2cc(Br)ccc21 in this test.
*A* false (0)

*Q* // same read-out, input: COc1ccc(C(=O)C(CN(C)C)CN(C)C)cc1
*A* false (0)

----------
Assay: NCI Yeast Anticancer Drug Screen. Data for the mec2-1 strain (AID 157)
Conditions: S. cerevisiae mec2-1 strain, at 100.0 µM
Method: Growth inhibition of yeast strains with defined genetic alterations is measured as a screen for potential anti-cancer activity. Selected strains with alterations in DNA damage repair or cell cycle control were exposed to compounds and growth inhibition was measured relative to vehicle treated controls. The strain used in this assay is mec2-1
This is part of a sample that, as a whole, favours compounds with a hit. Of some 79,000 tested, about 15% had one in any assay. Calls of active or inactive are those of the source. No stated cut-off is given here; in the data, active means growth inhibition above about 70%; inactive means the rest.
The reply should name one outcome from YES = active, NO = inactive

COMPOUND	CLASSIFICATION
CC(=O)Nc1ccc2c(c1)-c1ccccc1C2=O	YES

# ---- query compound ----
*Q* Entry O=C1C=C(Cl)C(=O)C(c2ccc(Cl)cc2)=C1 : call = ?
*A* YES
